Data origin: patent US20220226340A1

- study target: CK1α (Homo sapiens, UniProt P48729)
- Sequence (P48729 whole entry): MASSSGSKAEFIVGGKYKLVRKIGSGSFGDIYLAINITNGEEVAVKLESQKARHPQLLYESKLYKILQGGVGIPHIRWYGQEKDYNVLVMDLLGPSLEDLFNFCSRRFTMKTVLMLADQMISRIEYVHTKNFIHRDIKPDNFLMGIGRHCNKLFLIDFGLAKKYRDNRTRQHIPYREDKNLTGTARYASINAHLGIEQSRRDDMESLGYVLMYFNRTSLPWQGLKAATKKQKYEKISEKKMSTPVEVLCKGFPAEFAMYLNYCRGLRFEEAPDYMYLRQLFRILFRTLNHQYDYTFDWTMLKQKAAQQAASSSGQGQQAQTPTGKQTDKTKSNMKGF
- assay overview: CK1α inhibition IC50
- Assay type: biochemical
- test settings: Table 4; read-out: CK1 a IC50
measurement kind: IC50 (nM)
Report only the number, with the unit nM understood.

Sample answers from the record:
Cc1cc(-c2cn(C)nc2-c2ccc(F)cc2)ccn1
4020
Cn1cc(-c2ccnc(N)n2)c(-c2ccc(F)cc2)n1
636
Cn1cc(-c2ccncc2)c(-c2ccc(F)cc2)n1
873

-- ask Specify IC50 for Fc1ccc(-c2nc3ccc(N4CCNCC4)nn3c2-c2ccnnc2)cc1 , system CK1α (Homo sapiens, UniProt P48729).
-- reply 194

----------
- study target: CK1α (Homo sapiens)
- assay overview: CK1α inhibition IC50
- Type: biochemical
- test settings: Table 3; read-out: CK1 a IC50
measurement kind: pIC50
For clarity, pIC50 is expressed as the negative log10 of concentration in mol/L.

-- ask Respond only with pIC50 recorded for CC1(C)CN(c2ccc3nc(-c4ccc(F)cc4)c(-c4ccncc4)n3n2)CCN1 [Nr. 1]
-- reply 7.53

----------
- study target: UniProt:P48730
- assay overview: CK1δ inhibition IC50
- Assay type: biochemical
- test settings: Table 6; read-out: IC50 CK1δ
measurement kind: IC50 (nM)
Report only the number, with the unit nM understood.

Sample answers from the record:
OCCC#Cc1nc(-c2ccc(F)cc2)c(-c2ccncc2)n1CCCc1ccccc1 [RWJ 67657, reference compound]
115
Fc1ccc(-c2nc3ccc(N4CCNCC4)nn3c2-c2ccncc2)cc1 [Nr. 8]
16
CNCc1cc(-c2cn(C)nc2-c2ccc(F)cc2)ccn1 [Nr. 9]
58
CC1(C)CN(c2ccc3nc(-c4ccc(F)cc4)c(-c4ccncc4)n3n2)CCN1 [Nr. 1]
18
Fc1ccc(-c2nc3ccc(N4CCC(N5CCCC5)CC4)nn3c2-c2ccncc2)cc1 [Nr. 14]
45

-- ask Respond only with IC50 recorded for COCCN1Cc2nccc(-c3cn(C)nc3-c3ccc(F)cc3)c2C1=O [Nr. 7]
-- reply 42

-- ask Respond only with IC50 recorded for Cc1cc(-c2cn(C)nc2-c2ccc(F)cc2)ccn1 [Nr. 19]
-- reply 81

----------
- study target: CK1δ (Homo sapiens, UniProt P48730)
- Sequence (P48730 whole entry): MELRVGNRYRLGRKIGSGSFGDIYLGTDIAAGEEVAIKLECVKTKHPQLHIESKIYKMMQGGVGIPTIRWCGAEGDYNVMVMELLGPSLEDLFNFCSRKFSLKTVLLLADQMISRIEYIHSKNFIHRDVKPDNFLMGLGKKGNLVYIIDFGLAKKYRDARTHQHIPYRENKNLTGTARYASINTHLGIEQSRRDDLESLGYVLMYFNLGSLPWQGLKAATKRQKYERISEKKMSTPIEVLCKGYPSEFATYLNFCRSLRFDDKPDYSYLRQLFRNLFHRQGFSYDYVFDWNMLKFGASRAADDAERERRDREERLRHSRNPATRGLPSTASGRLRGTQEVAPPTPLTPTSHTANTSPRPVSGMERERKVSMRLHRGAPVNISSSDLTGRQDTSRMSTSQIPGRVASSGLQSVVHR
- assay overview: CK1δ inhibition IC50
- Type: biochemical
- test settings: Table 4; read-out: CK1 d IC50
measurement kind: IC50 (µM)
Report only the number, with the unit µM understood.

Sample answers from the record:
OCCC#Cc1nc(-c2ccc(F)cc2)c(-c2ccncc2)n1CCCc1ccccc1 [RWJ 67657, reference compound]
0.115
Fc1ccc(-c2nc3ccc(N4CCOCC4)nn3c2-c2ccncc2)cc1
2.09
Cn1cc(-c2ccnc3[nH]ccc23)c(-c2ccc(F)cc2)n1
0.0169

-- ask Respond only with IC50 recorded for Fc1ccc(-c2nc3ccc(N4CCC(N5CCCC5)CC4)nn3c2-c2ccncc2)cc1
-- reply 0.045

-- ask Respond only with IC50 recorded for Cc1cc(-c2cn(C)nc2-c2ccc(F)cc2)ccn1
-- reply 0.0807

----------
- study target: CK1α (Homo sapiens, UniProt P48729)
- assay overview: CK1α inhibition IC50
- Assay type: biochemical
- test settings: Table 6; read-out: IC50 CK1α
measurement kind: IC50
// return the numeric value with its unit appended

Sample answers from the record:
CC1(C)CN(c2ccc3nc(-c4ccc(F)cc4)c(-c4ccncc4)n3n2)CCN1 [Nr. 1]
29 nM
Cn1cc(-c2ccnc(N)n2)c(-c2ccc(F)cc2)n1 [Nr. 18]
636 nM

-- ask Respond only with IC50 recorded for OCCC#Cc1nc(-c2ccc(F)cc2)c(-c2ccncc2)n1CCCc1ccccc1 [RWJ 67657, reference compound]
-- reply 1830 nM
